experiment.summary: in vitro
condition.description: human, hek293t cells
Entries and their viability at 48 h, 25 µM values follow.

| molecule | viability at 48 h, 25 µM (%) |
| --- | --- |
| CCc1ccc(NC(=O)C(C#N)=Cc2ccc(F)c(C#N)c2)cc1 | 23.7 |
| Cc1cc(C)n(CCCNC(=O)C(C)Cl)n1 (centres unmarked) | 78.1 |
| C=CC(=O)NCc1ccc2oc(=O)[nH]c2c1 | 103 |
| C=CC(=O)N1CCC(C(=O)NC2CCCc3nc(C)ncc32)CC1 (centres unmarked) | 32 |
| c1ccc(CSSCc2ccccc2)cc1 [10-O21, [(benzyldisulfanyl)methyl]benzene] | 100 |

###

This section presents compounds with their documented viability at 48 h, 25 µM values.
experiment.summary: in vitro
condition.description: human, hek293t cells

| compound | viability at 48 h, 25 µM (%) |
| --- | --- |
| CC1CCN(C(=O)CCl)c2cc(C(F)(F)F)ccc2S1 (stereo not drawn) [5-J07] | 0.306 |
| CC(C)NC(=O)C(C#N)=Cc1cccc(Cl)c1Cl [9-C07] | 39.7 |
| CC(Cl)C(=O)N1CCN(c2nccc3sccc23)CC1 (stereo not drawn) [7-G10] | 83.5 |
| N#CC(=Cc1cccc(F)c1)C(=O)Nc1cc(Cl)ccc1Cl [9-P03] | 109 |
| C=CC(=O)N1CCC(C(=O)NC2CC2(C)C)CC1 (stereo not drawn) [3-C07] | 30.9 |
| C=CC(=O)N1CCOC(c2nc(C)cs2)C1 (stereo not drawn) [3-A17] | 26.2 |
| C=CC(=O)N1CCN(c2nc3ccccc3o2)CC1 [1-K05] | 75.6 |
| C=CC(=O)N(CC)CC(=O)N1CCc2c(ncn2CC)C1 [2-H08] | 84.8 |
| CCn1cc(CN(C(=O)CCl)[C@H]2CC[C@H](C)CC2)cn1 [5-G16] | 0.893 |
| C=CC(=O)NCC1CCS(=O)(=O)C1(C)C (stereo not drawn) [1-O16] | 103 |
| CC1=C(C#N)C(=O)N(C)C(=O)C1=Cc1ccc(-c2ccccc2Cl)o1 [9-K18] | 126 |
| Cc1cc(C(=O)CCl)c(C)n1-c1ccc(Cl)c(Cl)c1 [10-D18] | 0.282 |
| Cc1cc(C(=O)CCl)c(C)n1-c1ccc(C(C)C)cc1 [10-J12] | 0.754 |
| N#CC(=Cc1ccccc1)C(=O)Nc1ccccc1-c1ccccc1 [8-A15] | 90.1 |
| O=C(CCl)N1CCCCC1Cn1ccnn1 (stereo not drawn) [5-E08] | 28 |
| O=C(CCl)c1ccc(C(F)(F)F)cc1 [10-B10] | 13.9 |
| O=C(CCl)Nc1ccc(Cl)c(C(F)(F)F)c1 [4-I09] | 0.299 |
| COC(=O)c1ccc(C=C(C#N)C(=O)NC(C)C)n1C [9-P12] | 115 |
| O=C(CCl)c1ccccn1 [10-J03, 2-chloro-1-(pyridin-2-yl)ethan-1-one] | 94.4 |
| O=C(NC1CCCN(C(=O)CCl)C1)c1cc2ccccc2o1 (stereo not drawn) [5-D05] | 0.852 |
| COc1ccc(S(=O)(=O)N2CCSSCC2)cc1C [10-D11] | 105 |
| C=CC(=O)Nc1cccc(-c2ccon2)c1 [3-L04] | 70.4 |
| CNS(=O)(=O)c1cc(NC(=O)CCl)ccc1C [6-M07] | 0.859 |
| Cc1ccccc1NC(=O)C(C#N)=Cc1cc(C)n(CC(C)C)c1C [8-D19] | 118 |
| N#CC(=Cc1cccc(O)c1)C(=O)Nc1ccc(N2CCOCC2)cc1 [8-I14] | 82.5 |
| O=C(CCl)NCc1cc([N+](=O)[O-])ccc1O [4-A05] | 1.29 |
| CC(C)c1ccccc1NC(=O)CCl [4-F06] | 1.92 |
| O=C(CCl)N(Cc1ccc(Cl)cc1)C12CC3CC(CC(C3)C1)C2 [4-H07] | -0.34 |
| C=CC(=O)NCc1ccccc1S(=O)(=O)N1CCCC1 [2-L17] | 68.6 |
| CC(Cl)C(=O)N1CCc2oc(-c3ccccc3)cc2C1 (stereo not drawn) [6-B21] | 67.2 |
| CC(Cl)C(=O)N1CCCC1c1nc(N(C)C)no1 (stereo not drawn) [7-F19] | 77.6 |
| C=CC(=O)N(C)Cc1nc2c(cnn2C)c(=O)[nH]1 [3-L08] | 70.4 |
| Cn1cc(C(=O)CCl)cc1C(N)=O [10-J06] | 1.55 |
| C=CC(=O)N(C)CC(=O)N1CCn2cccc2C1C (stereo not drawn) [2-K10] | 101 |
| Cc1ccc(C)c(NC(=O)CN(C)C(=O)CCl)c1 [6-N04] | 0.906 |
| O=C(CCl)C1CC12CCOCC2 (stereo not drawn) [10-M15] | 108 |
| C=CC(=O)N1CCCC1c1nc(N(C)C)no1 (stereo not drawn) [2-C21] | 191 |
| Cc1ccsc1-c1nnc(NC(=O)CCl)o1 [6-K03] | 72.7 |
| CC(Cl)C(=O)N(Cc1cccs1)[C@@H]1C=C[C@H](CO)C1 (stereo partly drawn) [7-E14] | 87.9 |
| C=CC(=O)NCCC(=O)N1CC[S+]([O-])C(C)(C)CC1 (stereo not drawn) [3-O17] | 58.5 |
| C=CC(=O)N1CCC(c2nc3c(s2)CCC3)CC1 [3-I22] | 91.2 |
| C=CC(=O)NC1(C(N)=O)CCCC1C (stereo not drawn) [3-B09] | 54.5 |
| C=CC(=O)N1CCn2cccc2C12COC2 [1-K09] | 80.6 |
| C=CC(=O)Nc1cc(C(C)C)ccc1C(C)C [1-I21] | 101 |
| N#CC(=Cc1ccc(O)cc1)C(=O)NCc1ccco1 [9-N10] | 103 |

###

experiment.summary: in vitro
condition.description: human, hek293t cells

| compound | unit.abbrev | viability at 48 h, 25 µM |
| --- | --- | --- |
| COc1ccc(NC(=O)CCl)cc1S(=O)(=O)N(C)C | % | 0.774 |
| C=CC(=O)N1CCC(C(=O)NCc2nccn2-c2ccccc2)CC1 | % | 86.5 |
| C=CC(=O)N1CC(C(N)=O)Oc2ccccc21 (stereo not shown) | % | 24.7 |
| N#CC(C(=O)Nc1ccc2c(c1)OCCO2)=C1N=C(N)c2ccccc21 | % | 83.5 |
| N#CC(=Cc1cccs1)C(=O)NCc1ccco1 | % | 110 |
| O=C(CCl)Nc1cccc(CN2CCSCC2)c1 | % | 1.12 |
| COc1ccc(N(Cc2cccs2)C(=O)CCl)cc1 | % | 0.692 |
| N#CC(=Cc1ccc(Cl)cc1)C(=O)Nc1cccc2c1C(=O)NC2=O | % | 105 |
| O=C(CCl)Nc1sc2c(c1C(=O)c1ccccc1)CCCC2 | % | 0.213 |
| CC(NC(=O)C(C#N)=Cc1ccccc1)C12CC3CC(CC(C3)C1)C2 (stereo not shown) | % | 13.9 |
| CCc1ccc(NC(=O)CCl)cc1 [4-P03, 2-chloro-N-(4-ethylphenyl)acetamide] | % | 0.338 |
| Cc1cc(C)cc(N(CCC#N)C(=O)CCl)c1 | % | 0.915 |
| Cc1cc(C=C(C#N)C(=O)Nc2nccs2)cc(C)c1O | % | 106 |
| CC(Cl)C(=O)NC(=O)NCc1ccccc1 (stereo not shown) | % | 123 |
| C=CC(=O)NC[C@@H]1CCCN1c1ccccc1 | % | 60.1 |
| O=C(CCl)Nc1ccc(Oc2ccccc2)cc1 [4-J09, 2-chloro-N-(4-phenoxyphenyl)acetamide] | % | -0.178 |
| CCCc1cc(NC(=O)CCl)n(-c2ccccc2)n1 | % | 0.483 |
| CC(Cl)C(=O)N1CCN(C(=O)CN2C(=O)CCC2=O)CC1 (stereo not shown) | % | 106 |
| CC(Cl)C(=O)NC(c1ccc(F)cc1)c1cnn(C)c1 (stereo not shown) | % | 93.1 |
| N#CC(=Cc1cccc(-c2ccncc2)c1)C(=O)NCc1ccco1 | % | 68.2 |
| Cc1[nH]c2ccccc2c1C=C(C#N)C(=O)NCc1ccccc1 | % | 96.6 |
| CC(Cl)C(=O)N1CCC(Oc2cnc3ccccc3n2)CC1 (stereo not shown) | % | 68.7 |
| CN(C(=O)CCl)c1c(N)n(Cc2ccccc2)c(=O)[nH]c1=O | % | 22.8 |
| N#CC(=Cc1cccc(Cl)c1Cl)C(=O)NCCc1ccccc1 | % | 10.1 |
| C=CC(=O)N1CCC(C(=O)Nc2ccn(CC(=O)N(C)C)n2)CC1 | % | 71 |
| O=C(CCl)c1ccc(CC(=O)N2CCOCC2)s1 | % | 71.7 |
| C=CC(=O)NCc1cc(C(F)(F)C(F)(F)F)on1 | % | 48.4 |
| N#CCSc1ccccc1NC(=O)CCl | % | 2.08 |
| C=CC(=O)N(C)CC(=O)N1CCC(c2nc3c(s2)CCCC3)CC1 | % | 92.5 |
| C=CC(=O)N1CCN(Cc2ccon2)CC1 | % | 79.6 |
| CCc1cc(SC#N)cc(C)c1NC(=O)CCl | % | 17.6 |
| Cc1ccc(CN(Cc2c(C)noc2C)C(=O)CCl)c(C)c1 | % | 1.14 |
| C=CC(=O)NCC1CCC2(CCCC2)O1 (stereo not shown) | % | 106 |
| CCOc1cc(C=C(C#N)C(=O)NC(C)C)cc(Cl)c1O | % | 87.3 |
| O=C(CCl)N[C@H]1CCN(S(=O)(=O)c2ccccc2)C1 | % | 0.479 |
| CC(C)(C)c1ccc(CC(=O)CCl)cc1 | % | 1.53 |
| Cc1cc(C(=O)CCl)c(C)n1CC1CCCO1 (stereo not shown) | % | 54.2 |
| Cc1ccc(NC(=O)C(C#N)=Cc2cccc(Cl)c2Cl)cc1 | % | 69.5 |
| N#CC(=Cc1ccc(F)c(F)c1)C(=O)NC1CCCCC1 | % | 101 |
| CC(C)N(Cc1ccccc1)C(=O)CCl | % | 1.21 |
| COCc1nc(C2CCCCCN2C(=O)CCl)no1 (stereo not shown) | % | 1.24 |
| C=CC(=O)Nc1ccc(C(=O)N2CCC(C)(C)S(=O)(=O)CC2)cc1 | % | 78.6 |
| CN(CC(=O)NCc1ccco1)C(=O)CCl | % | 0.0249 |
